Value source: the RNAGym collection of RNA variant scans (doi:10.7554/elife.90254)

B1: LINE1-full (parent)
chain: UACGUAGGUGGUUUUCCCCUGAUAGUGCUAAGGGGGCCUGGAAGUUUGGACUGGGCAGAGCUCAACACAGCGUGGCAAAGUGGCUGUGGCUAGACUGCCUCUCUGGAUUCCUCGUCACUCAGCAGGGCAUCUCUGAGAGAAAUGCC

# Variants of: B1
# Assay explanation: self-cleavage, relative activity (ratio to wild type); higher = more cleavage; in vitro, sequencing; the parent is a self-cleaving ribozyme
Quantity measured: self-cleavage

Residue codes: UACGUAGGUGGUUUUCCCCUGAUAGUGCUUAGGGGGCCUGGAAGUUUGGGCUGGGCAGAGCUCAACACAGCGUGGCAAAGUGGCUGUGGCUAGACUGCCUCUCUGGAUUCCUCGUCACUCAGCAGGGCAUCUCUGAGAGAAAUGCC [A30U A50G]
Meas value: 2.04
--
Residue codes: UACGUAGGUGGUUUCCCCCUGAUAGUGCUAAGGGGGCCUGGAAGUUUGGACUGGGCAGAGCUCAACACAGCGUGGCAAAGUGGCUGUGGCUAGACUGCCUCUCUGGAUUCCUCGUCACUCAGCAGGGCAGCUCUGAGAGAAAUGCC [U15C U130G]
Meas value: 1.49
--
Residue codes: UACGUAGGUGGUUUUCCCCUGAUAGUGCUAAGGGGGCCUGGAAGUCUGGACUGGGCAGAGCUCGACACAGCGUGGCAAAGUGGCUGUGGCUAGACUGCCUCUCUGGAUUCCUCGUCACUCAGCAGGGCAUCUCUGAGAGAAAUGCC [U46C A64G]
Meas value: 0.38
--
Residue codes: UACGUAGGUGGUUUUCCCCUGACAGUGCUAAGGGGGCCUGGAAGUUUGGACUGGGCAGAGCUCAACACAGCGUGGCAAAGUGGCUGUGGCUAGACAGCCUCUCUGGAUUCCUCGUCACUCAGCAGGGCAUCUCUGAGAGAAAUGCC [U23C U96A]
Meas value: 0.12
--
Residue codes: UACGUAGGUGGUUUUCCCCUGAUAGUGCUAAGGGGGCCUGGAAGUUUGGGCUCGGCAGAGCUCAACACAGCGUGGCAAAGUGGCUGUGGCUAGACUGCCUCUCUGGAUUCCUCGUCACUCAGCAGGGCAUCUCUGAGAGAAAUGCC [A50G G53C]
Meas value: 0.13
--
Residue codes: UACGUAGGUGGUUUUCCCCUGAUAGUGCUAAGGGGGCCUGGAAGUUUGGACUGGGCAGAGCUCAGCACAGCGUGGCAAAGUGGCUGUGGCUAGACUGCCUCUCUGGAUUCCUCGCCACUCAGCAGGGCAUCUCUGAGAGAAAUGCC [A65G U115C]
Meas value: 0.05
--
Residue codes: UACGUAGGUGGUCUUCCCCUGAUAGUGCUAAGGGGGCCUGGAAGUUUGGACUGGGCAGAGCUCAACACAGCGUGGCAAAGUGGCUGUGGCUAGACUGCCUCUAUGGAUUCCUCGUCACUCAGCAGGGCAUCUCUGAGAGAAAUGCC [U13C C103A]
Meas value: 1
--
Residue codes: UACGUAGGUGGUUUUCCCCUGAUAGUGCUAAGGGGGCCUGGAAGUUUGGCCUGGGCUGAGCUCAACACAGCGUGGCAAAGUGGCUGUGGCUAGACUGCCUCUCUGGAUUCCUCGUCACUCAGCAGGGCAUCUCUGAGAGAAAUGCC [A50C A57U]
Meas value: 0
--
Residue codes: UACGUAGUUGGUCUUCCCCUGAUAGUGCUAAGGGGGCCUGGAAGUUUGGACUGGGCAGAGCUCAACACAGCGUGGCAAAGUGGCUGUGGCUAGACUGCCUCUCUGGAUUCCUCGUCACUCAGCAGGGCAUCUCUGAGAGAAAUGCC [G8U U13C]
Meas value: 2.33
--
Residue codes: UACGUAGGUGGUUUUCCCCUGAUUGUGCUAAGGGGGCCUGGAAGAUUGGACUGGGCAGAGCUCAACACAGCGUGGCAAAGUGGCUGUGGCUAGACUGCCUCUCUGGAUUCCUCGUCACUCAGCAGGGCAUCUCUGAGAGAAAUGCC [A24U U45A]
Meas value: 0.82
--
Residue codes: UACGUAGGUGGUUUUCCCCUGAUAGUGCUAAGGGGGCCUGGAAGUUUGGACUGGGCAGAGCUCAACACAGCGUGGCAAAGUGGCUGUGGUUAGACUGCCUCUCUGGAUUCCUCUUCACUCAGCAGGGCAUCUCUGAGAGAAAUGCC [C90U G114U]
Meas value: 0.03
